# Test system: p53 responsive β-lactamase reporter in HCT116 cells
# method_description: cells
# Assay type: cell-based
# condition_context: 0% FBS 4Hr; read-out: p53 reporter assay: EC50
readout_name: EC50 (µM)
Answer with a number only, understood to be in µM.

Record CC(=O)N[C@@H](CC(C)C)C(=O)N[C@H](C(=O)N[C@@H](Cc1ccccc1)C(=O)N[C@]1(C)CCCCCCC=CCCC[C@@](C)(C(=O)N[C@@H](CO)C(=O)N[C@@H](C)C(=O)N[C@@H](C)C(N)=O)NC(=O)[C@H](CC2CCC2)NC(=O)[C@H](Cc2c[nH]cn2)NC(=O)[C@H](C)NC(=O)[C@H](Cc2c[nH]c3ccccc23)NC(=O)[C@H](Cc2ccc(O)cc2)NC(=O)[C@H](CCC(=O)O)NC1=O)[C@@H](C)O [MP-501, ATSP-7041 (Q8H)] : what is its EC50 with p53 responsive β-lactamase reporter in HCT116 cells?
2.5

----------
# Tested on: HCT116 cells
# method_description: Lactate dehydrogenase (LDH) release assay
# Assay type: cell-based
# Description: HCT116 cells were stably transfected with a p53 responsive β-lactamase reporter and expanded in McCoy’s 5 A Medium with 10% fetal bovine serum (FBS), Blasticidin, and Penicillin/Streptomycin and then transferred to 1.5 ml freezing vials and stored under liquid nitrogen in growth media containing 5% DMSO. […] Lactate dehydrogenase release was detected using the CytoTox-ONE Homogenous Membrane Integrity Assay Kit (Promega), as per the manufacturer’s instructions. […]
Positions of bridges follow the written chain, without caps; N, C: chain ends. Non-standard residues stand in square brackets, D forms with d. Residues, ends and D or L forms follow the SMILES beside them. Lys(N3) = [N-]=[N+]=NCCCC[C@H](N)C(=O)O; R8 = C=CCCCCCC[C@@](C)(N)C(=O)O; Cba = N[C@@H](CC1CCC1)C(=O)O; S5 = C=CCCC[C@](C)(N)C(=O)O; βAla = NCCC(=O)O; Sar = CNCC(=O)O
Exercise: state measured LDH: Cytotoxicity assay: % Effect for each of the compounds provided.
Answer with a number only, understood to be in %.

What LDH: Cytotoxicity assay: % Effect value was documented for this compound, CC(=O)N[C@@H](CC(C)C)C(=O)N[C@H](C(=O)N[C@@H](Cc1ccccc1)C(=O)NC(C)(C)C(=O)N[C@H](CCC(=O)O)C(=O)N[C@@H](Cc1ccc(O)cc1)C(=O)N[C@@H](Cc1c[nH]c2ccccc12)C(=O)N[C@@H](CCC(N)=O)C(=O)N[C@@H](CC(C)C)C(=O)N[C@@H](CC1CCC1)C(=O)NC(C)(C)C(=O)N[C@@H](CO)C(=O)N[C@@H](C)C(=O)N[C@@H](C)C(N)=O)[C@@H](C)O ?
5.465

Then what about the compound CC(=O)N[C@H](C)C(=O)N[C@H](C)C(=O)N[C@H](C)C(=O)N[C@H](C)C(=O)N[C@@H](CC(C)C)C(=O)N[C@H](C(=O)N[C@@H](Cc1ccccc1)C(=O)N[C@]1(C)CCCCCCC=CCCC[C@@](C)(C(=O)N[C@@H](CO)C(=O)N[C@@H](C)C(=O)N[C@@H](C)C(N)=O)NC(=O)[C@H](CC2CCC2)NC(=O)[C@H](CCC(N)=O)NC(=O)[C@H](C)NC(=O)[C@H](Cc2c[nH]c3ccccc23)NC(=O)[C@H](Cc2ccc(O)cc2)NC(=O)[C@H](CCC(=O)O)NC1=O)[C@@H](C)O ?
-0.1776

Then what about the compound CC(=O)N[C@@H](CCCNC(=N)N)C(=O)N[C@@H](CCCNC(=N)N)C(=O)NCCCCCC(=O)N[C@@H](CCCCN=[N+]=[N-])C(=O)N[C@@H](CC(C)C)C(=O)N[C@H](C(=O)N[C@@H](Cc1ccccc1)C(=O)N[C@]1(C)CCCCCCC=CCCC[C@@](C)(C(=O)N[C@@H](CO)C(=O)N[C@@H](C)C(=O)N[C@@H](C)C(N)=O)NC(=O)[C@H](CC2CCC2)NC(=O)[C@H](CCC(N)=O)NC(=O)[C@H](C)NC(=O)[C@H](Cc2c[nH]c3ccccc23)NC(=O)[C@H](Cc2ccc(O)cc2)NC(=O)[C@H](CCC(=O)O)NC1=O)[C@@H](C)O ?
23.39

Then what about the compound CC(=O)N[C@@H](CCCCN=[N+]=[N-])C(=O)NCCC(=O)N[C@@H](CC(C)C)C(=O)N[C@H](C(=O)N[C@@H](Cc1ccccc1)C(=O)N[C@]1(C)CCCCCCC=CCCC[C@@](C)(C(=O)N[C@@H](CO)C(=O)N[C@@H](C)C(=O)N[C@@H](C)C(N)=O)NC(=O)[C@H](CC2CCC2)NC(=O)[C@H](CCC(N)=O)NC(=O)[C@H](C)NC(=O)[C@H](Cc2c[nH]c3ccccc23)NC(=O)[C@H](Cc2ccc(O)cc2)NC(=O)[C@H](CCC(=O)O)NC1=O)C(C)C [MP-258] (Ac-[Lys(N3)][βAla]LVF[R8]EYWAQ[Cba][S5]SAA-NH2; staple 6-13) ?
-5.925

Then what about the compound CC(=O)N[C@@H](CCCCN=[N+]=[N-])C(=O)NCCC(=O)N[C@@H](CC(C)C)C(=O)N[C@H](C(=O)N[C@@H](Cc1ccccc1)C(=O)N[C@]1(C)CCCCCCC=CCCC[C@@](C)(C(=O)N[C@@H](CO)C(=O)N[C@@H](C)C(=O)N[C@@H](C)C(N)=O)NC(=O)[C@H](CC2CCC2)NC(=O)[C@H](CCC(N)=O)NC(=O)[C@H](C)NC(=O)[C@H](Cc2c[nH]c3cc(F)ccc23)NC(=O)[C@H](Cc2ccc(O)cc2)NC(=O)[C@H](CCC(=O)O)NC1=O)[C@@H](C)O ?
10.1

Then what about the compound CC(=O)N[C@@H](CCCNC(=N)N)C(=O)NCCCCCC(=O)N[C@@H](CC(C)C)C(=O)N[C@H](C(=O)N[C@@H](Cc1ccccc1)C(=O)N[C@]1(C)CCCCCCC=CCCC[C@@](C)(C(=O)N[C@@H](CO)C(=O)N[C@@H](C)C(=O)N[C@@H](C)C(N)=O)NC(=O)[C@H](CC2CCC2)NC(=O)[C@H](CCC(N)=O)NC(=O)[C@H](C)NC(=O)[C@H](Cc2c[nH]c3ccccc23)NC(=O)[C@H](Cc2ccc(O)cc2)NC(=O)[C@H](CCC(=O)O)NC1=O)[C@@H](C)O ?
-1.283

Then what about the compound CC(=O)N[C@@H](CCCCN=[N+]=[N-])C(=O)NCCC(=O)N1CCC[C@H]1C(=O)N[C@H](C(=O)N[C@@H](Cc1ccccc1)C(=O)N[C@]1(C)CCCCCCC=CCCC[C@@](C)(C(=O)N[C@@H](CO)C(=O)N[C@@H](C)C(=O)N[C@@H](C)C(N)=O)NC(=O)[C@H](CC2CCC2)NC(=O)[C@H](CCC(N)=O)NC(=O)[C@H](C)NC(=O)[C@H](Cc2c[nH]c3ccccc23)NC(=O)[C@H](Cc2ccc(O)cc2)NC(=O)[C@H](CCC(=O)O)NC1=O)[C@@H](C)O [MP-259] (Ac-[Lys(N3)][βAla]PTF[R8]EYWAQ[Cba][S5]SAA-NH2; staple 6-13) ?
7.47

Then what about the compound CC(=O)N[C@@H](CCCCN=[N+]=[N-])C(=O)NCCC(=O)N[C@@H](CC(C)C)C(=O)N[C@H](C(=O)N[C@@H](Cc1ccccc1)C(=O)N[C@]1(C)CCCCCCC=CCCC[C@@](C)(C(=O)N[C@@H](CO)C(=O)N[C@@H](C)C(=O)N[C@@H](C)C(N)=O)NC(=O)[C@H](CC2CCC2)NC(=O)[C@H](CCC(N)=O)NC(=O)CN(C)C(=O)[C@H](Cc2c[nH]c3ccccc23)NC(=O)[C@H](Cc2ccc(O)cc2)NC(=O)[C@H](CCC(=O)O)NC1=O)[C@@H](C)O [MP-351] (Ac-[Lys(N3)][βAla]LTF[R8]EYW[Sar]Q[Cba][S5]SAA-NH2; staple 6-13) ?
-3.92

----------
# method_description: Experimental LogD (partition coefficient)
# condition_context: not stated, Partition Coeff LogD
Positions of bridges follow the written chain, without caps; N, C: chain ends. Non-standard residues stand in square brackets, D forms with d. Residues, ends and D or L forms follow the SMILES beside them. R8 = C=CCCCCCC[C@@](C)(N)C(=O)O; Cba = N[C@@H](CC1CCC1)C(=O)O; S5 = C=CCCC[C@](C)(N)C(=O)O
readout_name: logD
// keep it numeric: no unit symbol after the value

What logD value was documented for this molecule, CC(=O)N[C@@H](CC(C)C)C(=O)N[C@H](C(=O)N[C@@H](Cc1ccccc1)C(=O)N[C@]1(C)CCCCCCC=CCCC[C@@](C)(C(=O)N[C@@H](CO)C(=O)N[C@@H](C)C(=O)N[C@@H](C)C(N)=O)NC(=O)[C@H](CC2CCC2)NC(=O)[C@H](CC(C)C)NC(=O)[C@H](CCCNC(=N)N)NC(=O)[C@H](Cc2c[nH]c3ccccc23)NC(=O)[C@H](Cc2ccc(O)cc2)NC(=O)[C@H](CCC(=O)O)NC1=O)[C@@H](C)O [MP-194] (Ac-LTF[R8]EYWRL[Cba][S5]SAA-NH2; staple 4-11) ?
2.87

Then what about the molecule CC(=O)N[C@@H](CCCCN=[N+]=[N-])C(=O)NCCC(=O)N[C@@H](CC(C)C)C(=O)N[C@H](C(=O)N[C@@H](Cc1ccccc1)C(=O)N[C@]1(C)CCCCCCC=CCCC[C@@](C)(C(=O)N[C@@H](CO)C(=O)N[C@@H](C)C(=O)N[C@@H](C)C(N)=O)NC(=O)[C@H](CC2CCC2)NC(=O)[C@H](CCC(=O)O)NC(=O)[C@H](C)NC(=O)[C@H](Cc2c[nH]c3ccccc23)NC(=O)[C@H](Cc2ccc(O)cc2)NC(=O)[C@H](CCC(=O)O)NC1=O)[C@@H](C)O [MP-181] ?
2.74

Then what about the molecule CC(=O)N[C@@H](CCCCN=[N+]=[N-])C(=O)NCCC(=O)N[C@@H](CC(C)C)C(=O)N[C@H](C(=O)N[C@@H](Cc1ccccc1)C(=O)N[C@]1(C)CCCCCCC=CCCC[C@@](C)(C(=O)N[C@@H](CO)C(=O)N[C@@H](CCC(=O)O)C(=O)N[C@@H](C)C(N)=O)NC(=O)[C@H](CC2CCC2)NC(=O)[C@H](CCC(N)=O)NC(=O)[C@H](C)NC(=O)[C@H](Cc2c[nH]c3ccccc23)NC(=O)[C@H](Cc2ccc(O)cc2)NC(=O)[C@H](CCC(=O)O)NC1=O)[C@@H](C)O [MP-898] ?
2.4

Then what about the molecule CC(=O)N[C@@H](CC(C)C)C(=O)N[C@H](C(=O)N[C@@H](Cc1ccccc1)C(=O)N[C@]1(C)CCCCCCC=CCCC[C@@](C)(C(=O)N[C@@H](CO)C(N)=O)NC(=O)[C@H](CC2CCC2)NC(=O)[C@H](CC(C)C)NC(=O)[C@H](CCC(N)=O)NC(=O)[C@H](Cc2c[nH]c3ccccc23)NC(=O)[C@H](Cc2ccc(O)cc2)NC(=O)[C@H](CCC(=O)O)NC1=O)[C@@H](C)O [MP-204] (Ac-LTF[R8]EYWQL[Cba][S5]S-NH2; staple 4-11) ?
2.81

Then what about the molecule CC(=O)N[C@@H](CCC(=O)O)C(=O)N[C@@H](CCC(=O)O)C(=O)N[C@@H](CCCCN=[N+]=[N-])C(=O)NCCCCCC(=O)N[C@H](C(=O)N[C@@H](CO)C(=O)N[C@@H](Cc1ccccc1)C(=O)N[C@]1(C)CCCCCCC=CCCC[C@@](C)(C(N)=O)NC(=O)[C@H](CC(C)C)NC(=O)[C@H](CC(C)C)NC(=O)[C@H](C)NC(=O)[C@H](Cc2c[nH]c3ccccc23)NC(=O)[C@H](Cc2ccc(O)cc2)NC(=O)[C@H](CCC(=O)O)NC1=O)[C@@H](C)O [MP-661] ?
2.02

Origin of measurements: paper PMC10786919
